Some binders, each annotated with its measured kon.
Biological target: T1, …-biotin (C-terminal biotin)
T1 construct: also called DAKD-b; DAKD-biotin
Assay: Biacore, biotin-peptide on SA chip;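 note: purified antibodies injected as twofold dilutions from 0.1 to 10 nM in HBS-EP over streptavidin-captured biotinylated BKR1 or BKR2 ligand peptides, with a random-peptide flow cell as reference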
// units = M⁻¹ s⁻¹; emit number, no label

The following binders have reported results that may help.
INSERT INTO assay_data (binder, assay_value) VALUES
  ('humanized F151 variant HC2c/LC2b (antibody, human IgG1, V domains shown, also called LC2bxHC2c) VH: QIQLVQSGAEVKKPGASVKVSCKASGYSFTDYNIYWVKQSPGKGLEWIGYFDPYNGNTGYNQKFRGKATLTVDKSSSTAYMHLSSKTSEESAVYYCANYYRYDDHAMDYWGQGTSVTVSS VL: DIVMTQSPSSLSASVGDRVTISCKSSQSLLYSSNQKNYLAWYQQKPGKSPKPLIYWASTRESGVPDRFSGSGSGTDFTLTISSVQAEDKATYYCQQYYSYPWTFGGGTKLEIK', 481000),
  ('humanized F151 variant HC2a/LC2a (antibody, human IgG1, V domains shown, also called LC2axHC2a) VH: QIQLVQSGAEVKKPGASVKVSCKASGYSFTDYNIYWVKQSPGKGLEWIGYFDPYNGNTGYNQKFRGKATLTVDKSSSTAYMHLSSLTSEESAVYYCANYYRYDDHAMDYWGQGTSVTVSS VL: DIVMTQSPSSLSASVGDRVTISCKSSQSLLYSSNQKNYLAWYQQKPGKSPKPLIYWASTRESGVPDRFSGSGSGTDFTLTISSVQAEDLATYYCQQYYSYPWTFGGGTKLEIK', 666000),
  ('humanized F151 variant HC1/LC1 (antibody, V domains shown, also called LC1xHC1) VH: EIQLVQSGPEVKKPGASVKVSCKASGYSFTDYNIYWVKQSPGKSLEWIGYFDPYNGNTGYNQKFRGKATLTVDKSSSTAFMHLSSLTSEDSAVYYCANYYRYDDHAMDYWGQGTSVTVSS VL: DIVMSQSPSSLAASVGDRVTMSCKSSQSLLYSSNQKNYLAWYQQKPGKSPKPLIYWASTRESGVPDRFTGSGSGTDFTLTISSVQAEDLAIYYCQQYYSYPWTFGGGTKLEIK', 416000);

# context switch: different binder, same kon
Record humanized F151 variant HC2b/LC2a (antibody, human IgG1, V domains shown, also called LC2axHC2b) VH: QIQLVQSGAEVKKPGASVKVSCKASGYSFTDYNIYWVKQSPGKGLEWIGYFDPYNGNTGYNEKFRGKATLTVDKSSSTAYMHLSSLTSEESAVYYCANYYRYDDHAMDYWGQGTSVTVSS VL: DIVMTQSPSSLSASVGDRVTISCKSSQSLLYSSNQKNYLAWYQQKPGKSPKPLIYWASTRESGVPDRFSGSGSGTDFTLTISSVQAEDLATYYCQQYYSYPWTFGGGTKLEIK . Reported kon: 417000
